System: Staphylococcus aureus FDA 209P
Assay: MIC against Staphylococcus aureus FDA 209P
Format: cell-based
Conditions: Staphylococcus aureus, FDA209P; Table 1, azaalkenelactams; heart infusion agar, 37° C., 24 hours; read-out: MIC
Define the label as true when MIC is strictly less than 6 mg/L and as false in all remaining cases.

1) CCCCCCCCCCCCCCNCCN1CCN=CC(C)(C)C1=O | true
2) CCCCCCCCCCCCCCNCCN1CCCN=CC(C)C1=O (stereo not shown) | true
3) CCCCCCCCCc1ccc(OCC(O)CNCCNCCNCCN2CCN=CC(C)C2=O)cc1 (stereo not shown) | false
4) CCCCCCCCCCCCNC(=O)CCC [Laurylbutylamide, reference compound] | false
5) CCCCCCCCCCCCCCC(O)CNCCN1CCN=CC(C)(C)C1=O (stereo not shown) | false
6) CCCCCCCCCCCCN1CCN=C(C)CC1=O | false
7) CCCCCCCCCCCCNCCN1CCN=C(C)CC1=O | false
8) CCCCCCCCCCCCCCNCCN1CCN=CCCC1=O | true
9) CCCCCCCCCCCCCCC(O)CNCCN1CCN=C(C)CC1=O (stereo not shown) | false
10) CCCCCCCCCCCC(=O)OCCN1CCN=CC(C)C1=O (stereo not shown) | false
11) CCCCCCCCCCCC(=O)OCCN1CCCN=C(C)CC1=O | false
12) CCCCCCCC/C=C\CCCCCCCCNCCCNC(=O)CCCCCCC/C=C\CCCCCCCC [Oleylaminopropyl oleamide, oleylaminopropyloleamide, reference compound] | false
13) CCCCCCCCCCCCNCCNCCN1CCN=C(C)CC1=O | true
14) CCCCCCCCCCCCCCNCCN1CCN=CC(C)C1=O (stereo not shown) | true
15) CCCCCCCCCCCCCCNCCN1CCN=CCC(C)C1=O (stereo not shown) | true
16) CCCCCCCCCCCCCCNCCN1CCN=C(C)CC1=O | true
